System: M14
ASSAY DETAILS: NCI tumour cell line growth inhibition, 48 h
The source made the active and inactive calls. Rule as the data show it: active = GI50 up to about 1.1 µM and inactive = higher.

| COMPOUND | GI50 |
| --- | --- |
| N#CC(NNC(=O)Cc1ccccc1)c1cccc(O)c1 (centres undefined) | > 100 µM (inactive) |
| N/C(=N\Nc1ccc(C(=O)O)cc1)c1cnccn1 | > 100 µM (inactive) |
| COc1ccc(-c2cc(=O)c3cc(O)ccc3o2)c(OC)c1OC | 37.9 µM (inactive) |
| Cc1cnc2sn(-c3ccc(Oc4ccccc4)cc3)c(=O)c2c1 | 7.43 µM (inactive) |
| CC(=O)OCC1OC(OC2CC3C(C)(C)C(O)CC[C@]3(C)C3CCC45CC4(CCC5[C@@H](C)CC(O)C(O)C(C)(C)O)[C@]23C)C(O)C(O)C1O (some centres undefined) | > 10 µM (inactive) |
| COc1ccc(N)c(C(=O)CCNC(C)=O)c1 | > 100 µM (inactive) |
| CN(C)c1ccccc1CC(c1c[nH]c2ccccc12)c1c[nH]c2ccccc12 | 11.4 µM (inactive) |
| COc1cc2nc(-c3cccs3)nc(N3C(c4cc(OC)c(OC)c(OC)c4)=NNC(=O)c4ccccc43)c2cc1OC | 15.3 µM (inactive) |
| N#CC12C(=O)N3C(=NC(c4ccccc4)NC3c3ccccc3)C1(C#N)C(c1ccccc1)NC1=C2CCCC1 (centres undefined) | > 100 µM (inactive) |
